Target: glucagon receptor (human, UniProt P47871 26-477)
Sequence (P47871 26-477): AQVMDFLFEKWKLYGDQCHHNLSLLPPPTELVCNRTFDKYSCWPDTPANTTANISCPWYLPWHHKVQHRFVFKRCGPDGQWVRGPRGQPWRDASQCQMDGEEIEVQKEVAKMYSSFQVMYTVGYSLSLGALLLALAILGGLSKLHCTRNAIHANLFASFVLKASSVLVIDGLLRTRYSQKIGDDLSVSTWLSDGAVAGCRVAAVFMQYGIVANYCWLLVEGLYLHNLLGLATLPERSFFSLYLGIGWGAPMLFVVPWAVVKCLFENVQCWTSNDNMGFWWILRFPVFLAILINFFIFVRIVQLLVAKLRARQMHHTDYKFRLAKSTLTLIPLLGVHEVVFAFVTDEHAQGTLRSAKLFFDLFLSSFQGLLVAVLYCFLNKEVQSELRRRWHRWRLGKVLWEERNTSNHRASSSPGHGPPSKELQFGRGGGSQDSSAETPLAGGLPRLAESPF
Experiment: cell-based or functional assay
Non-standard residues stand in square brackets, D forms with d. No end group written: not given here. Aib = CC(C)(N)C(=O)O
Measure name: EC50 (cAMP luciferase reporter) (nM)

> print(dat)
                                     binder                     measure.name  reported.result
1  HSQGTFTSDYSKYLD[Aib]KAVRLFICWLLDT-NH2 [Glucagon Analog 86]  EC50 (cAMP luciferase reporter)            0.035
2  HSQGTFTSDKSKYLDEEAVRLFIEWLMNT-NH2 (also: Lys-γGlu-C16 (K(B)) at unstated position) [Glucagon Analog 37]  EC50 (cAMP luciferase reporter)            0.119
3  HSQGTFTSDYSKYLDEQAVRLFICWLLDT-NH2 (not fully specified; also: further groups not given here) [Glucagon Analog 87]  EC50 (cAMP luciferase reporter)            0.021
